Data origin: patent US10960087B2

Test system: human mononucleocytes (PBMC) stimulated with staphylococcal enterotoxin B (SEB)
Assay: cells
Assay type: cell-based
Conditions: read-out: EC50 Cytokine Release IFNγ
Property: EC50

Item: O=C(NC(Cc1cc(=O)[nH]c2ccccc12)C(=O)O)c1ccc(Cl)cc1 (stereo not shown) [Rebamipide] | EC50: > 1000 µM

###

System: human mononucleocytes (PBMC) stimulated with staphylococcal enterotoxin B (SEB)
Test: cells
Type: cell-based
Details: read-out: EC50 Cytokine Release IL-2
Property: EC50

Measured EC50, O=C(NC(Cc1cc(=O)[nH]c2ccccc12)C(=O)O)c1ccc(Cl)cc1 (stereo not shown) [Rebamipide] : > 1000 µM

###

Kindly supply the reported pEC50 values for the records listed here.
System: HuT 78 cell adhesion to 5dICAM-Ig
Experiment: Human T-cell adhesion assay (HuT 78)
Type: cell-based
Conditions: HuT78, HuT 78 adhesion to 5dICAM-Ig
pEC50: −log10 of the molar value.

Please review the entries below; each comes with its answer.
• CS(=O)(=O)c1cccc(C[C@H](NC(=O)c2c(Cl)cc3c(c2Cl)CCN(C(=O)c2cc4ccccc4[nH]2)C3)C(=O)O)c1 = ≥ 7.30
• CP(C)(=O)c1cccc(C[C@H](NC(=O)c2c(Cl)cc3c(c2Cl)CCN(C(=O)c2ccc4ccoc4c2)C3)C(=O)O)c1 = ≥ 7.00
• C[S+]([O-])c1cncc(C[C@H](NC(=O)c2c(Cl)cc3c(c2Cl)CCN(C(=O)c2ccc4ccoc4c2)C3)C(=O)O)c1 (some centres unmarked) = ≥ 7.30
• CS(=O)(=O)c1cccc(C[C@H](NC(=O)c2c(Cl)cc3c(c2Cl)CCN(C(=O)c2cc4ccccc4cn2)C3)C(=O)O)c1 = ≥ 7.30
• CS(=O)(=O)CCNC[C@H](NC(=O)c1c(Cl)cc2c(c1Cl)CCN(C(=O)c1ccc(Cl)cc1)C2)C(=O)O = ≥ 5.52
• CS(=O)(=O)c1ccc(C[C@H](NC(=O)c2c(Cl)cc3c(c2Cl)CCN(C(=O)c2cc4cccnc4[nH]2)C3)C(=O)O)o1 = ≥ 7.30
• CS(=O)(=O)c1cccc(C[C@H](NC(=O)c2c(Cl)cc3c(c2Cl)CCN(C(=O)/C=C/c2ccccc2F)C3)C(=O)O)c1 = ≥ 7.30
• CS(=O)(=O)c1ccn(C[C@H](NC(=O)c2c(Cl)cc3c(c2Cl)CCN(C(=O)c2ccc4ccoc4c2)C3)C(=O)O)c1 = ≥ 7.30
• CS(=O)(=O)c1cccc(C[C@H](NC(=O)c2c(Cl)cc3c(c2Cl)CCN(C(=O)c2ccc(Cl)cc2)C3)C(=O)O)c1 = ≥ 7.30
• C=C(C)c1cn(C[C@H](NC(=O)c2c(Cl)cc3c(c2Cl)CCN(C(=O)c2ccc(Cl)cc2)C3)C(=O)O)nn1 = ≥ 7.00

List reported pEC50 for each of these compounds:
1. O=C(NC[C@H](NC(=O)c1c(Cl)cc2c(c1Cl)CCN(C(=O)c1ccc3cn[nH]c3c1)C2)C(=O)O)c1cccs1
2. CS(=O)(=O)N1CCC=C(C[C@H](NC(=O)c2c(Cl)cc3c(c2Cl)CCN(C(=O)c2ccc4ccoc4c2)C3)C(=O)O)C1
3. CS(=O)(=O)c1nc(C[C@H](NC(=O)c2c(Cl)cc3c(c2Cl)CCN(C(=O)c2ccc(Cl)cc2)C3)C(=O)O)c[nH]1
4. CS(=O)(=O)NCCC[C@H](NC(=O)c1c(Cl)cc2c(c1Cl)CCN(C(=O)c1ccc3ccoc3c1)C2)C(=O)O

1: ≥ 7.30; 2: ≥ 7.30; 3: ≥ 7.30; 4: ≥ 7.30
